System: 786-0 renal
experiment_notes: NCI tumour cell line growth inhibition, 48 h
*1 amine or outer side, *2 acyl side, *3 side chain or, on linkers, in order; H or OH if unused. Where a SMILES comes first, the peptide text is derived from it. [ ]: non-standard residue; d: D form. The star is where a group is joined. X31 = CC(=O)N(C)SCC(N[*:1])C(=O)[*:2]; Fmoc = O=C(OCC1c2ccccc2-c2ccccc21)*; Cbz = O=C(OCc1ccccc1)*; Boc = CC(C)(C)OC(=O)*; Bn = c1ccc(C*)cc1
reported_endpoint: TGI

Solved entries:
compound	reported_value
Cc1c2ccncc2c(C)c2c1[nH]c1ccc(OCC(F)(F)F)cc12	2.9 µM
Cc1cc(N(CCCl)CCCl)ccc1C=Nc1ccc2ccccc2c1	> 100 µM
Nc1nc2c(ncn2Cc2ccccc2CO)c(=O)[nH]1	> 100 µM
Ic1cc2c(cc1C1SCCCS1)OCO2	> 100 µM
COc1cc2c(cc1Nc1nc(Nc3cccc(F)c3C(N)=O)c3cc[nH]c3n1)N(C(=O)CN1CCN(C(C)C)CC1)CC2	7.53 µM

Per the records, this compound ( "O=C(Nc1ccccc1)c1cc(S(=O)(=O)Nc2nc3ccccc3o2)c(SCc2ccccc2)cc1Cl" ) has TGI equal to 38.2 µM

Per the records, this compound ( CC(C)(C)OC(=O)NCCCCC(NC(=O)C(Cc1c[nH]c2ccccc12)NC(=O)OCC1c2ccccc2-c2ccccc21)C(=O)N1CCCC1C(=O)NCC(N)=O (centres undefined) (Fmoc-WK(Boc)PG-NH2; configuration not given here) ) has TGI equal to > 100 µM

Per the records, this compound ( "Cc1ccc2nc(C=Nc3ccc(Cl)cc3)cc(C)c2c1" ) has TGI equal to 35.3 µM

Per the records, this compound ( "O=C(c1ccc(Cl)cc1)N(C(=S)OCc1ccccn1)c1ccccc1" ) has TGI equal to > 100 µM

Per the records, this compound ( "Cc1ccc(NC(=O)c2sc3nc4c(cc3c2N)C(=O)CCC4)cc1C" ) has TGI equal to > 100 µM

Per the records, this compound ( CC(=O)N(C)SCC(NC(=O)C(Cc1ccccc1)NC(=O)OCc1ccccc1)C(=O)NC(Cc1ccccc1)C(=O)NC(Cc1c[nH]c2ccccc12)C(=O)NC(CCCCNC(=O)OCc1ccccc1)C(=O)NC(C(=O)NC(CSN(C)C(C)=O)C(=O)NC(C(N)=O)C(C)OCc1ccccc1)C(C)OCc1ccccc1 (centres undefined) (Cbz-F[X31]FWK(Cbz)T(Bn)[X31]T(Bn)-NH2; configuration not given here) ) has TGI equal to > 100 µM

Per the records, this compound ( "Cc1ccc(Cl)c(Nc2ccccc2C(=O)O)c1Cl" ) has TGI equal to 64.3 µM

Per the records, this compound ( NN1C(=O)C(CCO)S/C1=N/N=C1/SC(CCO)C(=O)N1N (centres undefined) ) has TGI equal to > 100 µM

Per the records, this compound ( CC(=O)OC12c3ccccc3-c3ccccc3C1C1C(=O)OC(=O)C12 (centres undefined) ) has TGI equal to > 10 µM

Per the records, this compound ( CC(=O)Nc1ccc(COC(O)CN2CCCCC2)cc1[N+](=O)[O-] (centres undefined) ) has TGI equal to > 100 µM

Per the records, this compound ( COc1ccc(C2C3CCc4ccccc4C3=NN2S(=O)(=O)c2ccc(/C=C/C(=O)O)cc2)cc1 (centres undefined) ) has TGI equal to 15.9 µM

Per the records, this compound ( "COc1ccc(-n2ccnc2-c2cc(OC)c(OC)c(OC)c2)cc1" ) has TGI equal to > 100 µM

Per the records, this compound ( "CN1CCN(C)C12C=CC=CC21CC1" ) has TGI equal to > 100 µM

Per the records, this compound ( "Cc1cccc(-c2cc(=O)c3c(C)cc(C)nc3[nH]2)c1" ) has TGI equal to > 100 µM
